# Target desc: T1, human tumor necrosis factor-α (rHuTNF-alpha, Biosource) (human, UniProt P01375 77-233)
# T1 construct: Bought recombinant protein coated on ELISA plates; The TNFα of the Biacore assay is not described further; also called TNFα; human TNFα
# T1 sequence (P01375 77-233 limits assumed): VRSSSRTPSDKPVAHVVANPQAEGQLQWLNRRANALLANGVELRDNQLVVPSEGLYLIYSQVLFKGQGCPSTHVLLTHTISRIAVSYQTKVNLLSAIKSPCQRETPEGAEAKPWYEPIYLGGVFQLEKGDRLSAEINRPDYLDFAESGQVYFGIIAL
# Assay summary: solid-phase ELISA, Fab lysate on coated rHuTNF-alpha
Measurement type: binding result

SEQ ID NO 14 (Fab, V domains shown, Fab, E. coli lysate) VH: EVQLTESGGGLVQPGGSLRLSCAASQFTFSNHWMNWVRQAPGKGLEWIGEIRSKSIYGATHYAESVKGRFIISRDGNGNDLYLEMNSLKTEDTAEYYCARNYYGSTPDYWGQGTLVTVS VL: EIVLTQSPDFQSVTPKEKVTITCRASQFVGSSIHWYQQKPDQSPKLLIKYASESMSGVPSRFSGSGSGTDFTFTISSLEAEDAATYYCQQSHSWPFTFGPGTKVDIK = binds
SEQ ID NO 151 (Fab, V domains shown, Fab, E. coli lysate) VH: EVQLVESGGGLVQPGGSLRLSCAASQFIFSNHYMNWVRQAPGKGLEWIGEIRSKSIYGATHYAESVKGRFIISRDGNGNSLTLEMNSLKTEDTAEYYCARNYYGSTPDYWGQGTLVTVS VL: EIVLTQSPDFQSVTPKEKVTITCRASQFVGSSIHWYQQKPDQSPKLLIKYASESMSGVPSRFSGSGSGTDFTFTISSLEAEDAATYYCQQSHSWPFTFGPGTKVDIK = binds
SEQ ID NO 121 (Fab, V domains shown, Fab, E. coli lysate) VH: EVQLVESGGGLVQPGGSLRLSCAASQFTFSNHYMNWVRQAPGKGLEWIGEIRSKSINSATHYAESVKGRFIISRDDNGNDLYLEMNSLKTEDTAEYYCAQNYYGSTYDYWGQGTLVTVS VL: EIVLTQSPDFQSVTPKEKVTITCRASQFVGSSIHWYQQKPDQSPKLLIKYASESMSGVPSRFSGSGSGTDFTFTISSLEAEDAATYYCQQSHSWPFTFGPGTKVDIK = binds
